All values here come from patent US20230250178A1.

biological target: T1, human CCR8 (human, UniProt P51685 1-355); test: FACS screening, full length human IgG1
T1 construct: also called hCCR8; P51685_CCR8_HUMAN
recordedMetric: binding result

>>> observed("TPP-17576 (antibody, human IgG1, lambda, V domains shown, also called 497A-M136-021-1-hIgG1Lambda) VH: EVQLLESGGGLVQPGGSLRLSCAASGFTFSSYAMSWVRQAPGKGLEWVGRIRSKANSYATAYAASVKGRFTISRDNSKNTLYLQMNSLRAEDTAVYYCTRPLDSWGQGTLVTVSS VL: QSVLTQPPSASGTPGQRVTISCSGSSSNIGNNAVNWYQQLPGTAPKLLIYRNNQRSSGVPDRFSGSKSGTSASLAISGLRSEDEADYYCQSYDNSLSASVFGGGTKLTVLG")
"binds"
>>> observed("TPP-17575 (antibody, human IgG1, lambda, V domains shown, also called 497A-M181-C17-1-hIgG1Lambda) VH: EVQLLESGGGLVQPGGSLRLSCAASGFTFRSYAMHWVRQAPGKGLEWVSLISWDGGSTYYADSVKGRFTISRDNSKNTLYLQMNSLRAEDTAVYYCARGGIGRRPGLEYWGQGTLVTVSS VL: QSVLTQPPSASGTPGQRVTISCSGSSSNIGNNYVSWYQQLPGTAPKLLIYGNSNRPSGVPDRFSGSKSGTSASLAISGLRSEDEADYYCQTWGTGIRVFGGGTKLTVLG")
"binds"
